FYI, the data here is from patent US20250011363A1.

experimentalSystem: acetylcholine receptor
assayComment: SPR, peptide at 10 uM, acetylcholine receptor immobilized on chip
measuredEndpoint: Binding affinity (RU)
Report the figure in RU without appending any unit label.

Please report the recorded Binding affinity (RU) for RYEKR [5mer-945] .
23
